Recorded values, source patent US11896592B2.

# target: Recombinant human Met (c-Met) (Homo sapiens)
# Construct: purchased Invitrogen PV3143
# Sequence (P08581 956-1390 limits assumed): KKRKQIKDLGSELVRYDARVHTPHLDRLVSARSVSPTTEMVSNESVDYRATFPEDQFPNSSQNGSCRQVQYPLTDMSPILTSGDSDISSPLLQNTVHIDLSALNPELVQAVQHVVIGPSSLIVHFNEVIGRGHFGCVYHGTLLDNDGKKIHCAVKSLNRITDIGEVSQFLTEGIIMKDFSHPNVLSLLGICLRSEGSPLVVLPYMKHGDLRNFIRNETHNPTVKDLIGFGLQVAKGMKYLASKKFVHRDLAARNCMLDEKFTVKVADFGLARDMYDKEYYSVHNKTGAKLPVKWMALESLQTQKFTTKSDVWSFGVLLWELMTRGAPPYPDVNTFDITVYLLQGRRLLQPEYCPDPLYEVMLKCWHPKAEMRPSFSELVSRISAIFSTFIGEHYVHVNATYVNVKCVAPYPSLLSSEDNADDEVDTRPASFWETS
# protocol text: Inhibition of c-Met kinase activity using Transcreener FP assay
# Assay type: biochemical
# study conditions: Poly E4Y substrate, 28° C. 45 min, read-out: IC50, inhibition of c-Met kinase activity
pIC50: −log10 of the molar value.
reported endpoint: pIC50

> print(dat)
                                   compound  observed.measurement
1  COCc1cnc2ccc(Cn3nnc4ncc(-c5cnn(CCO)c5)nc43)cn12 [Compound 309]          7.00 to 9.00

Q: Find the recorded pIC50 belonging to Clc1cccc(Nc2ccc3nnn(Cc4cc5cnccc5s4)c3n2)c1 [Compound 170] and report it.
A: 6.00 to 7.00

Q: Entry CS(=O)(=O)Nc1ccc(-c2ccc3nnn(Cc4ccc5ncccc5c4)c3n2)cc1 [Compound 84] has what pIC50?
A: 7.00 to 9.00

Q: Look up pIC50: OCCn1cc(-c2ccc3nnn(C4(c5ccc6ncccc6c5)CC4)c3n2)cn1 [Compound 123]
A: 6.00 to 7.00

Q: Would you kindly share the measured pIC50 for COCc1cnc2ccc([C@@H](C)n3nnc4ncc(-c5cnn(C)c5)nc43)cn12 [Compound 325] ?
A: 7.00 to 9.00

Q: Request the reported pIC50 associated with c1nc2ccc(Cn3nnc4ncc(-c5cnn(C6CCOCC6)c5)nc43)cn2n1 [Compound 55]
A: 6.00 to 7.00
